- System: growth hormone (GH) secretion
- EXPERIMENT: Growth Hormone Inhibition In Rats (pentobarbital-stimulated GH secretion, serum GH by radioimmunoassay)
- Assay type: in vivo
- RUN_PARAMETERS: male rats, peptide S.C., Dose (mg/kg) 50
Bridge positions count the residues as written; N and C are the ends. Square brackets hold non-standard residues; d marks the D form. Peptide text beside a SMILES is read from it.
VALUE_KIND: % Inhibition of GH release (as compared to saline controls) (%)
Hi! Could you send only the number? It should be in %, unit omitted.

Q: Annotate the compound C[C@H](N)C(=O)N[C@H](C)C(=O)N[C@H]1CSSC[C@@H](C(=O)O)NC(=O)[C@H](CO)NC(=O)[C@H]([C@@H](C)O)NC(=O)[C@@H](Cc2ccccc2)NC(=O)[C@H]([C@@H](C)O)NC(=O)[C@H](CCCCN)NC(=O)[C@@H](Cc2c[nH]c3ccccc23)NC(=O)[C@H](Cc2ccccc2)NC(=O)[C@H](Cc2ccccc2)NC(=O)[C@H](C)NC(=O)[C@H](CCCCN)NC1=O [Example 14] (H-A[dA]CKAFF[dW]KT[dF]TSC-OH; disulfide 3-14) with its measured % Inhibition of GH release (as compared to saline controls).
Result: 53

* * *

% Inhibition of GH release (as compared to saline controls) values by entry
- System: growth hormone (GH) secretion
- EXPERIMENT: Growth Hormone Inhibition In Rats (pentobarbital-stimulated GH secretion, serum GH by radioimmunoassay)
- Assay type: in vivo
- RUN_PARAMETERS: male rats, peptide S.C., Dose (mg/kg) 2
Bridge positions count the residues as written; N and C are the ends. Square brackets hold non-standard residues; d marks the D form. Peptide text beside a SMILES is read from it.
Hi! Could you send only the number? It should be in %, unit omitted.

Consider the following illustrative entries.
Q: Please tell me the measured % Inhibition of GH release (as compared to saline controls) for CC(C)[C@@H](N)C(=O)NCC(=O)N[C@H]1CSSC[C@@H](C(=O)O)NC(=O)[C@H](CO)NC(=O)[C@H]([C@@H](C)O)NC(=O)[C@@H](Cc2ccccc2)NC(=O)[C@H]([C@@H](C)O)NC(=O)[C@H](CCCCN)NC(=O)[C@@H](Cc2c[nH]c3ccccc23)NC(=O)[C@H](Cc2ccccc2)NC(=O)[C@@H](Cc2ccccc2)NC(=O)[C@H](C)NC(=O)[C@H](CCCCN)NC1=O [Example 4] (H-[dV]GCKA[dF]F[dW]KT[dF]TSC-OH; disulfide 3-14) ; system: growth hormone (GH) secretion.
Result: 27.9

Q: Please tell me the measured % Inhibition of GH release (as compared to saline controls) for CC(C)[C@@H](N)C(=O)NCC(=O)N[C@H]1CSSC[C@@H](C(=O)O)NC(=O)[C@H](CO)NC(=O)[C@H]([C@@H](C)O)NC(=O)[C@@H](Cc2ccccc2)NC(=O)[C@H]([C@@H](C)O)NC(=O)[C@H](CCCCN)NC(=O)[C@@H](Cc2c[nH]c3ccccc23)NC(=O)[C@H](Cc2ccccc2)NC(=O)[C@H](Cc2ccccc2)NC(=O)[C@H](C)NC(=O)[C@H](CCCCN)NC1=O [Example 7] (H-[dV]GCKAFF[dW]KT[dF]TSC-OH; disulfide 3-14) ; system: growth hormone (GH) secretion.
Result: 45.9

Q: Please tell me the measured % Inhibition of GH release (as compared to saline controls) for C[C@H](N)C(=O)N[C@H](C)C(=O)N[C@H]1CSSC[C@@H](C(=O)O)NC(=O)[C@H](CO)NC(=O)[C@H]([C@@H](C)O)NC(=O)[C@@H](Cc2ccccc2)NC(=O)[C@H]([C@@H](C)O)NC(=O)[C@H](CCCCN)NC(=O)[C@@H](Cc2c[nH]c3ccccc23)NC(=O)[C@H](Cc2ccccc2)NC(=O)[C@H](Cc2ccccc2)NC(=O)[C@H](C)NC(=O)[C@H](CCCCN)NC1=O [Example 14] (H-A[dA]CKAFF[dW]KT[dF]TSC-OH; disulfide 3-14) ; system: growth hormone (GH) secretion.
Result: 20

Q: Please tell me the measured % Inhibition of GH release (as compared to saline controls) for C[C@H](N)C(=O)NCC(=O)N[C@H]1CSSC[C@@H](C(=O)O)NC(=O)[C@H](CO)NC(=O)[C@H]([C@@H](C)O)NC(=O)[C@H](Cc2ccccc2)NC(=O)[C@H]([C@@H](C)O)NC(=O)[C@H](CCCCN)NC(=O)[C@H](Cc2c[nH]c3ccccc23)NC(=O)[C@H](Cc2ccccc2)NC(=O)[C@H](Cc2ccccc2)NC(=O)[C@H](CC(N)=O)NC(=O)[C@H](CCCCN)NC1=O ; system: growth hormone (GH) secretion.
Result: 0

Now look at this one.
Q: Please tell me the measured % Inhibition of GH release (as compared to saline controls) for CC(C)C[C@@H]1NC(=O)[C@H](C)NC(=O)[C@H](CCCCN)NC(=O)[C@@H](NC(=O)CNC(=O)[C@H](N)C(C)C)CSSC[C@@H](C(=O)O)NC(=O)[C@H](CO)NC(=O)[C@H]([C@@H](C)O)NC(=O)[C@@H](Cc2ccccc2)NC(=O)[C@H]([C@@H](C)O)NC(=O)[C@H](CCCCN)NC(=O)[C@@H](Cc2c[nH]c3ccccc23)NC(=O)[C@H](Cc2ccccc2)NC1=O [Example 10] (H-[dV]GCKALF[dW]KT[dF]TSC-OH; disulfide 3-14) ; system: growth hormone (GH) secretion.
Result: 37.3

* * *

- Tested on: growth hormone (GH) secretion
- EXPERIMENT: Growth Hormone Inhibition In Rats (pentobarbital-stimulated GH secretion, serum GH by radioimmunoassay)
- Type: in vivo
- RUN_PARAMETERS: male rats, pentobarbital 4 mg/rat I.P., peptide S.C., Dose (mg/kg) 50, 20 min after dosing
Bridge positions count the residues as written; N and C are the ends. Square brackets hold non-standard residues; d marks the D form. Peptide text beside a SMILES is read from it.
VALUE_KIND: Serum Growth Hormone Conc. Mean ± SEM (ng/mL)
Hi! Could you send only the number? It should be in ng/mL, unit omitted.

Q: Annotate the compound CC(C)[C@@H](N)C(=O)NCC(=O)N[C@H]1CSSC[C@@H](C(=O)O)NC(=O)[C@H](CO)NC(=O)[C@H]([C@@H](C)O)NC(=O)[C@@H](Cc2ccccc2)NC(=O)[C@H]([C@@H](C)O)NC(=O)[C@H](CCCCN)NC(=O)[C@@H](Cc2c[nH]c3ccccc23)NC(=O)[C@H](Cc2ccccc2)NC(=O)[C@@H](Cc2ccccc2)NC(=O)[C@H](C)NC(=O)[C@H](CCCCN)NC1=O [Example 4] (H-[dV]GCKA[dF]F[dW]KT[dF]TSC-OH; disulfide 3-14) with its measured Serum Growth Hormone Conc. Mean ± SEM.
Result: 31.9

* * *

Serum Growth Hormone Conc. Mean ± SEM values by entry
- System: growth hormone (GH) secretion
- EXPERIMENT: Growth Hormone Inhibition In Rats (pentobarbital-stimulated GH secretion, serum GH by radioimmunoassay)
- Format: in vivo
- RUN_PARAMETERS: male rats, pentobarbital 4 mg/rat I.P., peptide S.C., Dose (mg/kg) 50, 20 min after dosing
Bridge positions count the residues as written; N and C are the ends. Square brackets hold non-standard residues; d marks the D form. Peptide text beside a SMILES is read from it.
Hi! Could you send only the number? It should be in ng/mL, unit omitted.

Consider the following illustrative entries.
Q: Annotate the compound C[C@H](N)C(=O)N[C@H](C)C(=O)N[C@H]1CSSC[C@@H](C(=O)O)NC(=O)[C@H](CO)NC(=O)[C@H]([C@@H](C)O)NC(=O)[C@@H](Cc2ccccc2)NC(=O)[C@H]([C@@H](C)O)NC(=O)[C@H](CCCCN)NC(=O)[C@@H](Cc2c[nH]c3ccccc23)NC(=O)[C@H](Cc2ccccc2)NC(=O)[C@H](Cc2ccccc2)NC(=O)[C@H](C)NC(=O)[C@H](CCCCN)NC1=O [Example 14] (H-A[dA]CKAFF[dW]KT[dF]TSC-OH; disulfide 3-14) with its measured Serum Growth Hormone Conc. Mean ± SEM.
Result: 77.8

Q: Annotate the compound CC(C)C[C@@H]1NC(=O)[C@H](C)NC(=O)[C@H](CCCCN)NC(=O)[C@@H](NC(=O)CNC(=O)[C@H](N)C(C)C)CSSC[C@@H](C(=O)O)NC(=O)[C@H](CO)NC(=O)[C@H]([C@@H](C)O)NC(=O)[C@@H](Cc2ccccc2)NC(=O)[C@H]([C@@H](C)O)NC(=O)[C@H](CCCCN)NC(=O)[C@@H](Cc2c[nH]c3ccccc23)NC(=O)[C@H](Cc2ccccc2)NC1=O [Example 10] (H-[dV]GCKALF[dW]KT[dF]TSC-OH; disulfide 3-14) with its measured Serum Growth Hormone Conc. Mean ± SEM.
Result: 93.5

New cases:
Q: Annotate the compound CC(C)[C@@H](N)C(=O)NCC(=O)N[C@H]1CSSC[C@@H](C(=O)O)NC(=O)[C@H](CO)NC(=O)[C@H]([C@@H](C)O)NC(=O)[C@@H](Cc2ccccc2)NC(=O)[C@H]([C@@H](C)O)NC(=O)[C@H](CCCCN)NC(=O)[C@@H](Cc2c[nH]c3ccccc23)NC(=O)[C@H](Cc2ccccc2)NC(=O)[C@H](Cc2ccccc2)NC(=O)[C@H](C)NC(=O)[C@H](CCCCN)NC1=O [Example 7] (H-[dV]GCKAFF[dW]KT[dF]TSC-OH; disulfide 3-14) with its measured Serum Growth Hormone Conc. Mean ± SEM.
Result: 38.7
